ASSAYED_SYSTEM: biotinylated His-Avi-TEAD (194-411) (UniProt P28347)
EXPERIMENT: SSM screen, enrichment after two rounds of sorting
REPORTED_ENDPOINT: enrichment score

# get_value(readout='enrichment score', item= GSPDEAIERAKECCKKGDIQCCLRYFEESGDPNVMLICLFCP (designed binder) [Y04A variant of SEQ ID NO: 1] ) 0.26

# get_value(readout='enrichment score', item= GSPDEYIDRAKECCKKGDIQCCLRYFEESGDPNVMLICLFCP (designed binder) [E06D variant of SEQ ID NO: 1] ) -0.6

# get_value(readout='enrichment score', item= GSPDEYIERAKECCGKGDIQCCLRYFEESGDPNVMLICLFCP (designed binder) [K13G variant of SEQ ID NO: 1] ) 0.7

# get_value(readout='enrichment score', item= GSPDELIERAKECCKKGDIQCCLRYFEESGDPNVMLICLFCP (designed binder) [Y04L variant of SEQ ID NO: 1] ) -1.81

# get_value(readout='enrichment score', item= GSPDQYIERAKECCKKGDIQCCLRYFEESGDPNVMLICLFCP (designed binder) [E03Q variant of SEQ ID NO: 1] ) -1.35

# get_value(readout='enrichment score', item= GSPDEYIERAKECCKKGDGQCCLRYFEESGDPNVMLICLFCP (designed binder) [I17G variant of SEQ ID NO: 1] ) -5.4

# get_value(readout='enrichment score', item= GSPDEYAERAKECCKKGDIQCCLRYFEESGDPNVMLICLFCP (designed binder) [I05A variant of SEQ ID NO: 1] ) -1.2

# get_value(readout='enrichment score', item= GSPDEYIEHAKECCKKGDIQCCLRYFEESGDPNVMLICLFCP (designed binder) [R07H variant of SEQ ID NO: 1] ) -0.32

# get_value(readout='enrichment score', item= GSPDSYIERAKECCKKGDIQCCLRYFEESGDPNVMLICLFCP (designed binder) [E03S variant of SEQ ID NO: 1] ) -0.41

# get_value(readout='enrichment score', item= GSPDDYIERAKECCKKGDIQCCLRYFEESGDPNVMLICLFCP (designed binder) [E03D variant of SEQ ID NO: 1] ) 0.8

# get_value(readout='enrichment score', item= GSPDEYIERAKECCKKGDAQCCLRYFEESGDPNVMLICLFCP (designed binder) [I17A variant of SEQ ID NO: 1] ) -4.36

# get_value(readout='enrichment score', item= GSPDEYIERAKECCKKGDYQCCLRYFEESGDPNVMLICLFCP (designed binder) [I17Y variant of SEQ ID NO: 1] ) -9.48
